Listed next: entries and their corresponding Emax.
# System: primary human T-cells
# Assay name: T-cell proliferation assay (CellTiter-Glo)
# Format: cell-based
# Condition context: Homo sapiens, T-cell, 120 h; isomer A; CD3 condition, 5 days; 20 μM reference compound A1 = 100%, DMSO neutral control; read-out: Emax proliferation (% activation)
Phrase the answer as number then unit, nothing more needed.

Completed entries (count: 2):
CC(C)(C#N)c1nnc(-c2cc3c(cc2F)C(F)(F)C[C@@H](N)C(=O)N3Cc2ccc(-n3nnc(C(F)(F)F)n3)cc2)o1 (single isomer, unassigned) [Example 20]: 118%
CC(C)(C#N)c1nnc(-c2cc3c(cc2F)C(F)(F)C[C@@H](N)C(=O)N3Cc2ccc(-n3cc(C(F)(F)F)cn3)cc2F)o1 (single isomer, unassigned) [Example 44]: 126%

## Task Look up Emax: CC(C)(C#N)c1nnc(-c2cc3c(cc2F)C(F)(F)C[C@@H](N)C(=O)N3Cc2ccc(-c3cnn(C(F)(F)F)c3)cc2)o1 (single isomer, unassigned) [Example 48]
## Result 171%

---

Each record here notes measured Emax.
# System: primary human T-cells
# Assay name: T-cell proliferation assay (CellTiter-Glo)
# Assay type: cell-based
# Condition context: Homo sapiens, T-cell, 120 h; isomer A; CD3 condition, 5 days; 20 μM reference compound A1 = 100%, DMSO neutral control; read-out: Emax proliferation (% activation)
Supply the numeric figure in %, leaving out any unit text.

CC(C)(c1nnc(-c2cc3c(cc2F)C(F)(F)C[C@@H](N)C(=O)N3Cc2ccc(-n3cc(C(F)(F)F)cn3)cc2)o1)S(C)(=O)=O (single isomer, unassigned): 93

## Task What measured Emax is associated with CC(C)(C)c1cncc(-c2cc3c(cc2F)C(F)(F)C[C@@H](N)C(=O)N3Cc2ccc(Cl)cc2)c1 (single isomer, unassigned) on primary human T-cells?
## Result 52

## Task COc1ccc(-c2ccc(CN3C(=O)[C@H](N)CC(F)(F)c4cc(F)c(-c5nnc(C(C)(C)S(C)(=O)=O)o5)cc43)cc2)nc1 (single isomer, unassigned) , same question.
## Result 98

## Task CC(C)(C)c1nnc(-c2cc3c(cc2F)C(F)(F)C[C@@H](N)C(=O)N3Cc2ccc(OC3CCCC3)cc2)o1 (single isomer, unassigned) ?
## Result 110

## Task And what about the compound CC(C)(C#N)c1nnc(-c2cc3c(cc2F)C(F)(F)C[C@@H](N)C(=O)N3Cc2ccc(-c3ccc(C(F)F)cn3)cc2)o1 (single isomer, unassigned) ?
## Result 99

## Task Record: COc1ccc(-c2ccc(CN3C(=O)[C@H](N)CC(F)(F)c4cc(F)c(-c5nnc(C(C)(C)S(C)(=O)=O)o5)cc43)cc2)cc1 (single isomer, unassigned)
## Result 76

---

# Test system: primary human T-cells
# Assay name: T-cell proliferation assay (CellTiter-Glo)
# Type: cell-based
# Condition context: Homo sapiens, T-cell, 120 h; isomer A; CD3 condition, 5 days; 20 μM reference compound A1 = 100%, DMSO neutral control; read-out: Emax proliferation (% activation)
Please use Yes whenever Emax is not below 90%, and No whenever it is.

## Task Identify whether the reported Emax of the following compound is 90% or greater: N[C@@H]1CC(F)(F)c2cc(F)c(-c3nnc(N4CCCC4)o3)cc2N(Cc2ccc(-c3noc(C(F)(F)F)n3)cc2)C1=O (single isomer, unassigned)
## Result Yes

## Task Moving on to COC(=O)N1CC2CC(c3nnc(-c4cc5c(cc4F)C(F)(F)C[C@@H](N)C(=O)N5Cc4ccc(Cl)cc4)o3)(C2)C1 (single isomer, unassigned)
## Result No

## Task For N[C@@H]1CC(F)(F)c2cc(F)c(-c3nnc(N4CCOC5(CC5)C4)o3)cc2N(Cc2ccc(-c3noc(C(F)(F)F)n3)cc2)C1=O (single isomer, unassigned) then?
## Result Yes

Measured values drawn from patent US20250236614A1 for this set.
